Assay: Volatility of perfuming compounds (Tables 4 to 10), with top/middle/bottom note type
Assay type: physicochemical
Settings: Table 4, watery note
Method: In some aspects, the first perfume accord comprises perfuming compounds having a volatility ranging from 70,000 to 100 μg/l in air. In some aspects, perfuming compounds having a volatility ranging from 70,000 to 100 μg/l in air are referred to as “top notes”. In some aspects, the second perfume accord comprises perfuming compounds having a volatility ranging from 99 to 50 μg/l in air. […]
measurement-type: Volatility (μg/l air)

- compound: "CC/C=C\\CC/C=C/CO"
  unit-spec: "μg/l air"
  experimental-result: 98.76
- compound: "CCCCCCCCCC=O"
  unit-spec: "μg/l air"
  experimental-result: 466.56
- compound: "CC(C)(C)c1ccc2c(c1)OCC(=O)CO2"
  unit-spec: "μg/l air"
  experimental-result: 4.37
- compound: "CC(=O)OC/C=C(/C)CCC=C(C)C"
  unit-spec: "μg/l air"
  experimental-result: 123.21
- compound: "CC(C=O)Cc1ccc2c(c1)OCO2 (racemic)"
  unit-spec: "μg/l air"
  experimental-result: 3.57
- compound: "COc1ccc(CC(C)C=O)cc1 (racemic)"
  unit-spec: "μg/l air"
  experimental-result: 18.99
- compound: "CC(C)c1ccc2c(c1)OCC(=O)CO2"
  unit-spec: "μg/l air"
  experimental-result: 56.74
- compound: "CC/C=C\\CC/C=C/C=O"
  unit-spec: "μg/l air"
  experimental-result: 632.43
- compound: "CC(C=O)Cc1ccc(C(C)C)cc1 (racemic)"
  unit-spec: "μg/l air"
  experimental-result: 24.85
- compound: "CC(C=O)Cc1ccc(C(C)(C)C)cc1 (racemic)"
  unit-spec: "μg/l air"
  experimental-result: 12.86
- compound: "CCCCCCCCCCCC=O"
  unit-spec: "μg/l air"
  experimental-result: 144.79
- compound: "CCCc1ccc2c(c1)OCC(=O)CO2 [7-PROPYL-2H,4H-1,5-BENZODIOXEPIN-3-ONE]"
  unit-spec: "μg/l air"
  experimental-result: 4.85
- compound: "Cc1ccc2c(c1)CC(C)(CO)C2 (racemic)"
  unit-spec: "μg/l air"
  experimental-result: 4.86
- compound: "CCCCCC#CC(=O)OC [METHYL 2-OCTYNOATE″]"
  unit-spec: "μg/l air"
  experimental-result: 472.01
- compound: "COC(=O)c1c(C)cc(O)c(C)c1O"
  unit-spec: "μg/l air"
  experimental-result: 1.52
- compound: "CC/C=C\\CCCCCO [(Z)-6-NONEN-1-OL]"
  unit-spec: "μg/l air"
  experimental-result: 6.91
- compound: "CC(C)c1cccc(C(C)CC=O)c1 (racemic) [(+−)-3-(3-ISOPROPYL-1-PHENYL)BUTANAL]"
  unit-spec: "μg/l air"
  experimental-result: 14.74
- compound: "C=CCCCCCCCCC=O"
  unit-spec: "μg/l air"
  experimental-result: 136.73
- compound: "CC(C)=CCCC1=CCC(C)(C=O)CC1 (racemic)"
  unit-spec: "μg/l air"
  experimental-result: 26.54
- compound: "CC(C)CC1CC(C)(O)CCO1 (racemic)"
  unit-spec: "μg/l air"
  experimental-result: 79.79
- compound: "CCCCCCC#CC(=O)OC [METHYL 2-NONYNOATE]"
  unit-spec: "μg/l air"
  experimental-result: 91.76
- compound: "CC1=CC2CC(C=O)C1CC2C(C)C (stereo not drawn)"
  unit-spec: "μg/l air"
  experimental-result: 131.02
- compound: "CCCCCCCCCC(C)C=O (racemic) [(+−)-2-methylundecanal]"
  unit-spec: "μg/l air"
  experimental-result: 75.55
- compound: "CCCCCCCCC(C)C=O (racemic) [(+−)-2-methyldecanal″]"
  unit-spec: "μg/l air"
  experimental-result: 297.74
- compound: "CC(C)=CCCC(C)C=O (racemic)"
  unit-spec: "μg/l air"
  experimental-result: 1889.68
- compound: "CC(=O)OC(C)CCC=C(C)CCC=C(C)C (stereo not drawn) [1,5,9-TRIMETHYL-4,8-DECADIENYL ACETATE]"
  unit-spec: "μg/l air"
  experimental-result: 14.74
- compound: "CC(C)=CCCC(C)CCCC(C)C=O (racemic)"
  unit-spec: "μg/l air"
  experimental-result: 18.23
- compound: "CC(CC=O)CCCC(C)(C)O (racemic) [(+−)-7-hydroxy-3,7-dimethyloctanal]"
  unit-spec: "μg/l air"
  experimental-result: 12.81
- compound: "CCCCCCCCCCC=O"
  unit-spec: "μg/l air"
  experimental-result: 178.29
- compound: "CCCCCCCCCCCC#N"
  unit-spec: "μg/l air"
  experimental-result: 56.74
